- MEASURED TARGET: Recombinant HDAC9 isoform 4 (Homo sapiens, UniProt Q9UKV0)
- Construct: purchased BPS Bioscience
- Sequence (Q9UKV0 1-1066 isoform Q9UKV0-5): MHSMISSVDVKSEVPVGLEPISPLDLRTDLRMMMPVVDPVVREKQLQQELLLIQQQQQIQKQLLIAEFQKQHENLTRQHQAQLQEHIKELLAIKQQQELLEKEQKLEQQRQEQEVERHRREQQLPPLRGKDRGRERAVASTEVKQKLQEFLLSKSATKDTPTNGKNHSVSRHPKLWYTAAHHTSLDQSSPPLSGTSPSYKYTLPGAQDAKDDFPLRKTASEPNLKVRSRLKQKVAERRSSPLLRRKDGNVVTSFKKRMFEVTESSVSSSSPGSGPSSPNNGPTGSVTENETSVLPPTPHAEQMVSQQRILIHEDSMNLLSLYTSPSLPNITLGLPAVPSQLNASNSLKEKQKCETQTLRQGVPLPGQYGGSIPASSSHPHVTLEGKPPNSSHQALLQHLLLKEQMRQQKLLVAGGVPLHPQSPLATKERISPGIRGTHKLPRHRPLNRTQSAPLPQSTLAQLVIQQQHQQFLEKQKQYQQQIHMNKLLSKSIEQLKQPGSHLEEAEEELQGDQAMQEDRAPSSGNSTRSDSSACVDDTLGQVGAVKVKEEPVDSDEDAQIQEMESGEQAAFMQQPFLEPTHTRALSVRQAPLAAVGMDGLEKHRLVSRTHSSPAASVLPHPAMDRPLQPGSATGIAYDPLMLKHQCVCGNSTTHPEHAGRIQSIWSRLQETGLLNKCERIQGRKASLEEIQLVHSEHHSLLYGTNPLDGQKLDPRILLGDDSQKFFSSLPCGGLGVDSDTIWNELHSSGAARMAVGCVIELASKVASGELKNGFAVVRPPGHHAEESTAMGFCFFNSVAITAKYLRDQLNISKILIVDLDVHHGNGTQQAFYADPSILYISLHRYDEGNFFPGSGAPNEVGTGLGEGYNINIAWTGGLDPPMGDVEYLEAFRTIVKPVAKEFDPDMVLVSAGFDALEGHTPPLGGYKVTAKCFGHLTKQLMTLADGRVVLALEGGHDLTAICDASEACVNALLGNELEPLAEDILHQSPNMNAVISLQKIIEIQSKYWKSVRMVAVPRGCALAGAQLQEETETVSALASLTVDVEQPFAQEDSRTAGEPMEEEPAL
- ASSAY PROCEDURE: Histone Deacetylase 9 (HDAC9) inhibition assay, fluorogenic substrate
- Assay type: biochemical
- STATED CONDITIONS: mean of a minimum of 2 experiments; 11 point 3x dilution series from 100 uM; Class IIa HDAC-specific fluorogenic substrate 4.5 uM; read-out: mean pIC50, inhibition of HDAC9 (converted)
READOUT KIND: IC50

O=C(c1cccc(-c2noc(C(F)(F)F)n2)c1)N1CC(Cc2nc(-c3ccc(F)cc3)cs2)C1    < 1000 nM
N#Cc1ccc(N2CCN(C(=O)c3cccc(-c4noc(C(F)(F)F)n4)c3)CC2)cc1    < 1000 nM
O=C(c1cccc(-c2noc(C(F)(F)F)n2)c1)N1CCCN(c2ccc(C(F)(F)F)cn2)CC1    < 1000 nM
N#Cc1ccc(N2CCN(C(=O)c3cccc(-c4ccc(C(=O)C(F)(F)F)s4)c3)CC2)nc1    < 1000 nM
